Target: UniProt:Q15910
Sequence (Q15910 whole entry, looked up): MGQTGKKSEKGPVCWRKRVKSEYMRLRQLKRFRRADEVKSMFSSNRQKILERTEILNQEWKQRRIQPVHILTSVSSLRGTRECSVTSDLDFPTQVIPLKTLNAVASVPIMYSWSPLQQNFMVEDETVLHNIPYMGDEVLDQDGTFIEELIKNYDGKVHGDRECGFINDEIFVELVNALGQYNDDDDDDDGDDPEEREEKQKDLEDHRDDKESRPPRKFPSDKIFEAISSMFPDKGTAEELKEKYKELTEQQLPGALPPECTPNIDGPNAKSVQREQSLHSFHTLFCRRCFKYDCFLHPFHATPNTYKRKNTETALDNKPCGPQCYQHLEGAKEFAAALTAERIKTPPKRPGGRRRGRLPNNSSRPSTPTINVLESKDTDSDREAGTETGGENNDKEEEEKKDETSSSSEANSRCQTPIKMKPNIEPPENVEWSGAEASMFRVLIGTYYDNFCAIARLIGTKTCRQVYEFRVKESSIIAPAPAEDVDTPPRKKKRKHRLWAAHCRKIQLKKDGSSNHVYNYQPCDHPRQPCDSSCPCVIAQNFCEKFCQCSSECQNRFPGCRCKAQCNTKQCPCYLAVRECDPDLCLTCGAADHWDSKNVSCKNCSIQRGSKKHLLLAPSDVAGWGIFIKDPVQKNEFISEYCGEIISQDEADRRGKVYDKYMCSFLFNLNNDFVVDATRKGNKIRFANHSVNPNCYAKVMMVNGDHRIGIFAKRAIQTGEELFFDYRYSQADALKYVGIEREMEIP
Sequence (O75530 whole entry partner, looked up): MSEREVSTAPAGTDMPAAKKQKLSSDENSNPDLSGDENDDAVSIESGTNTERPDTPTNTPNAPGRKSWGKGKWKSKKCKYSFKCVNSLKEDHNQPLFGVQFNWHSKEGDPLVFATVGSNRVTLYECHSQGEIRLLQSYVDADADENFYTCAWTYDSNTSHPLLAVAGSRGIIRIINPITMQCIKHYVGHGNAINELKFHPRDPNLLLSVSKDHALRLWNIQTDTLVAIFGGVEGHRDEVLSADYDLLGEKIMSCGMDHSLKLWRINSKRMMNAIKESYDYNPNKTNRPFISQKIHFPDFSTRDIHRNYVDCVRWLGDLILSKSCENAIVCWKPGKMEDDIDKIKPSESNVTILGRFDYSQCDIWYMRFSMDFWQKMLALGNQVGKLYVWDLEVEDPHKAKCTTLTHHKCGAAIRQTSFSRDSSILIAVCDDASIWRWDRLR
Sequence (Q15022 whole entry partner, looked up): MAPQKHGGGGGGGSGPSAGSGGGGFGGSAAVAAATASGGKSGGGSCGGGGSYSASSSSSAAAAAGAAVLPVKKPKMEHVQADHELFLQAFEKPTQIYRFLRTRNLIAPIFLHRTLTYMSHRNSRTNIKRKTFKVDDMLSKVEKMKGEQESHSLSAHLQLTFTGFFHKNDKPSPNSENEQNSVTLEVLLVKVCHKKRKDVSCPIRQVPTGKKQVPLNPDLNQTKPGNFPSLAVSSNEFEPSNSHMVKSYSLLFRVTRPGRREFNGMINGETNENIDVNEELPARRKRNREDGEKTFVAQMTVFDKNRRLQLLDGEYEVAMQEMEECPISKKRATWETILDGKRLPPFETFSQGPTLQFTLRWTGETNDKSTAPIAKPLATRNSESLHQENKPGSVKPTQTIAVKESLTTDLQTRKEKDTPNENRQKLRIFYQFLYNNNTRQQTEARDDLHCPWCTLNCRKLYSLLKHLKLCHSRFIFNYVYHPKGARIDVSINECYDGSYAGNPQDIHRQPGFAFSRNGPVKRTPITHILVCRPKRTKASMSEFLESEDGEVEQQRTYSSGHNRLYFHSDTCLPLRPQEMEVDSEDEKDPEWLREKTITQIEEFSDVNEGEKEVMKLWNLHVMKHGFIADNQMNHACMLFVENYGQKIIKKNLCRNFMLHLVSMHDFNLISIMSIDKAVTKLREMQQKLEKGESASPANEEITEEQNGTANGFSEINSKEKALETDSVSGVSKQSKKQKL
Sequence (Q09028 whole entry partner, looked up): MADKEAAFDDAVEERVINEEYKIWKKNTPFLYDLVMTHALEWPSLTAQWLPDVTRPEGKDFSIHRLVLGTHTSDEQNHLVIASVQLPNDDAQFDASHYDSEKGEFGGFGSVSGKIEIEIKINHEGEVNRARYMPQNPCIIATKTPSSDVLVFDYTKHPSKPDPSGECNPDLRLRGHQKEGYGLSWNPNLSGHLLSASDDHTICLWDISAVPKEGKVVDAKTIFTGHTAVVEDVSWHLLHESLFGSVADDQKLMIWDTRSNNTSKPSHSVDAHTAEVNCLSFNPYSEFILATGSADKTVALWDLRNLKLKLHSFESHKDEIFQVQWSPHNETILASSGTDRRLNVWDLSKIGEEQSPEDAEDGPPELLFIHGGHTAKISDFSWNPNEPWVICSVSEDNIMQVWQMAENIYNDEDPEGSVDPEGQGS
Test: WT EZH2 nucleosome assay (10X SAM, high SAM conditions)
Assay type: biochemical
Conditions: 15 uM SAM, Ki app from competitive inhibition fit, read-out: WT EZH2 Nucleosome assay (10X SAM) Ki
Procedure: The genes for EZH2, EED, SUZ12, and RBBP4 proteins were cloned into pBacPAK9 vectors (Clontech). RBBP4 was FLAG tagged on the N-terminal end. The baculovirus expressions of these proteins were used to co-infect SF9 insect cells. […] D. Data analysis • 1. IC50 values were determined by fitting the data to a 4-parameter IC50 equation using proprietary curve fitting software. • 2. […]
pKi: −log10 of the molar value.
OBSERVABLE: pKi

P. Cc1cc(C)c(CN2CCc3ccc([C@H](CO)[C@@H]4CCOC4)c(Cl)c3C2=O)c(=O)[nH]1 (racemic)
Q. COc1cc(C)[nH]c(=O)c1CN1CCc2c(C)cc([C@@H](OC)[C@@H]3CCOC3)c(Cl)c2C1=O (single isomer, unassigned)
R. CCC(OC)c1cc(Cl)c2c(c1Cl)C(=O)N(Cc1c(OC)cc(C)[nH]c1=O)CC2 (single isomer, unassigned) [Example 107]
S. Cc1cc(C)c(CN2CCc3c(Cl)cc(C(CO)N4CCC(F)(F)C4)c(Cl)c3C2=O)c(=O)[nH]1 (single isomer, unassigned) [Example 67]
Q: Sort the entries above numerically by pKi, high end first. Please list the labels according to the requested order.
Ans: R, P, Q, S
(R: 8.72, P: 8.22, Q: 7.28, S: 5.80)

P. COC(c1cc(Cl)c2c(c1Cl)C(=O)N(Cc1c(C)cc(C)[nH]c1=O)CC2)C1(F)CCN(C)CC1 (single isomer, unassigned) [Example 121]
Q. Cc1cc(C)c(CN2CCc3c(Cl)cc(C(C)C4CN(S(C)(=O)=O)C4)c(Cl)c3C2=O)c(=O)[nH]1 (single isomer, unassigned) [Example 185]
R. Cc1cc(OC(F)F)c(CN2CCc3c(Cl)cc(C(CO)C4CCOC4)c(Cl)c3C2=O)c(=O)[nH]1 (single isomer, unassigned) [Example 94]
S. COC(c1cc(Br)c2c(c1Cl)C(=O)N(Cc1c(C)cc(C)[nH]c1=O)CC2)C1CN(C(=O)CO)C1 (single isomer, unassigned) [Example 138]
Q: List the 4 entries from lowest pKi to highest pKi value. Form entry: labels listed in requested order.
Ans: R, S, P, Q
(R: 6.49, S: 7.34, P: 7.54, Q: 9.00)

I. Cc1cc(C)c(CN2CCc3c(C)cc(C(CO)C4CCOCC4)c(Cl)c3C2=O)c(=O)[nH]1 (single isomer, unassigned) [Example 100]
II. Cc1cc(C)c(CN2CCc3c(C)cc(C(C)C4CN(S(C)(=O)=O)C4)c(Cl)c3C2=O)c(=O)[nH]1 (single isomer, unassigned) [Example 194]
Q: Pick the one with the larger pKi: I vs II Your answer should be the label attached to the chosen record.
Ans: II

Hello, the source for this data is patent US10570121B2, in case you need it.
